Measured values drawn from PubChem BioAssay AID1159580 for this set.

Protocol details: chemical genetic growth profiling, strain panel (AID 1159580);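 also: tested at 20 µM; growth read once vehicle control cultures reached saturation at 30 °C; lower values mean less growth of the strain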
Test context: S. cerevisiae deletion strains, growth OD, locus YMR263W, strain SAP30
In all, about 5,500 compounds went through this assay and about 2,000 (36%) were called active. Roughly 18% stayed inconclusive and do not appear here. Rule as the data show it: active = normalized growth mostly below about 0.91 (no sharp cut-off); inconclusive = no clear call, values can overlap the other calls; inactive = mostly above about 0.92. The list shows a part of the results.
Result category, one only: TRUE = active, FALSE = inactive

Enquiry: What is the recorded call for this compound in the test? O/N=C\c1sccc1Oc1ccccc1
Return: FALSE

Enquiry: GET /call?item= COc1cc(/C=C2/N=C(c3ccccc3I)OC2=O)cc(OC)c1OC returns the recorded outcome of this test.
Return: FALSE

Enquiry: Recorded test outcome, item CC1=NN(c2cccc(S(N)(=O)=O)c2)C(=O)C1
Return: FALSE

Enquiry: Hello, I am checking results. What call was entered for O=[N+]([O-])c1ccc(-c2nn[nH]n2)cc1 ?
Return: FALSE

Enquiry: Record lookup: outcome of this test for O=c1c(O)c(-c2ccc(O)c(O)c2)oc2cc(O)ccc12 ?
Return: FALSE

Enquiry: What did the test return for CCOc1ccc(C(=O)c2ccc(O)c(O)c2O)cc1 ?
Return: TRUE

Enquiry: State the result this test recorded for COc1cc(OC)cc(N2C(=O)C=CC2=O)c1 .
Return: TRUE

Enquiry: # lookup: test call for O=C1c2ccccc2C(=O)C1c1ccccc1
Return: FALSE

Enquiry: Outcome logged for COc1cc2nc(-c3cccs3)oc(=O)c2cc1OC in this assay:
Return: FALSE

Enquiry: What call does the record list for COC(=O)c1ccccc1CSc1nccc(C(F)(F)F)n1 ?
Return: FALSE

Enquiry: Entry N#Cc1nccnc1Sc1ccc(Cl)cc1 : call = ?
Return: FALSE

Enquiry: Dear colleague, could you share the recorded outcome for CC(=O)Nc1cc2ccccc2oc1=O when you have a moment?
Return: FALSE

Enquiry: What did this assay record as the result for Cc1ccc(OCc2nnc(SCC(=O)c3ccc(F)cc3)n2-c2ccccc2)c2c1CCC2 ?
Return: FALSE

Enquiry: Entry O=C(CCc1ccc(O)cc1)c1c(O)cc(O)cc1O[C@@H]1O[C@H](CO)[C@@H](O)[C@H](O)[C@H]1O : call = ?
Return: FALSE

Enquiry: What is the recorded call for this compound in the test? Nc1ncnc2c1nc(Br)n2C1OC2COP(=O)(O)O[C@@H]2C1O (stereo partly specified)
Return: FALSE

Enquiry: I would be grateful if you could indicate the recorded call for CC(N)C(O)c1ccc(O)c(O)c1 (stereo unspecified) .
Return: FALSE

Enquiry: Answer briefly: the call reported for CC(=O)O[C@H]1CC[C@]2(C)C3CC[C@@]4(C)C(CC5O[C@@]6(CCC(C)CO6)[C@@H](C)C54)C3CC[C@@H]2C1 (stereo partly specified) in this assay.
Return: FALSE

Enquiry: Name the outcome recorded for c1cc(C2CCCCC2)ccc1C1CCCCC1 in the assay.
Return: FALSE

Enquiry: Kindly provide the recorded test outcome for the following compound: CC(=O)CC1CCCCN1 (stereo unspecified)
Return: FALSE

Enquiry: Could you kindly confirm the outcome this assay logged for C1CCC(C(CC2CCCCN2)C2CCCCC2)CC1 (stereo unspecified) ?
Return: TRUE

Enquiry: Which result was noted for this compound in the test: CC(=O)OCC1=C(C(=O)O)N2C(=O)[C@@H](NC(=O)CCCC(N)C(=O)O)C2SC1 (stereo partly specified)
Return: FALSE
